# testMethodNotes: Activators via SNCA 5'UTR binding, MLPCN (AID 1814)
# testContext: alpha-synuclein 5'UTR reporter, activators screen; tested at 7.5 µM
Screen size: about 300,000 compounds; about 22,000 (7.3%) were called active. Not shown: some 2% with an inconclusive outcome. Rule as the data show it: active = activity score below about -60%; inconclusive = mostly about -28% to -61%; inactive = positive scores. This excerpt belongs to a sample that is enriched for actives.
Possible outcomes: active, inactive

# compound, className
rows = [
    ("c1ccc(CCc2nc(-c3ccncc3)no2)cc1", "active"),
    ("COC(=O)Nc1nc2ccc(Sc3ccccc3)cc2[nH]1", "inactive"),
    ("O=C(NC(=S)Nc1cccc(-c2ccc(CO)o2)c1)c1cccs1", "active"),
    ("CCOC(=O)c1cc2cc(C)ccc2[nH]1", "active"),
    ("Cn1cc([N+](=O)[O-])c(C(=O)Nc2ccc3c(c2)OCCO3)n1", "active"),
    ("O=C(c1noc2c1CCCC2)N1CCc2ccccc2C1", "active"),
    ("COC(=O)c1ccc(NCC(=O)c2ccccc2)cc1", "active"),
    ("CC(C)Sc1ncnc2c1cnn2-c1ccccc1", "active"),
    ("COc1cccc(-c2nnc(N(C)C(=O)c3ccno3)s2)c1", "active"),
    ("Nc1c(C(=O)c2cccs2)sc2nsc(SCCN3CCCCC3)c12", "active"),
    ("CNC(=O)/C(C#N)=C/c1c(F)cccc1Cl", "active"),
    ("CCCn1nnc2sc3c(c2c1=O)CCC(C)C3 (stereo not given)", "active"),
    ("CC(=O)c1ccc(S(=O)(=O)N2CCN(C(=O)/C=C/c3ccc4ccccc4n3)CC2)cc1", "inactive"),
    ("O=C(Nc1ccccc1)c1ccc2nsnc2c1", "active"),
    ("Cc1ccc(-c2noc(C3CCCN(C(=O)c4cccc(Cl)c4)C3)n2)o1 (stereo not given)", "active"),
    ("COc1ccc(/C=C2\\SC(=S)N(CCCC(=O)NC3CCCC3)C2=O)cc1OC", "inactive"),
    ("Oc1ccc(/C=N/NC2=NCCCCC2)c(O)c1", "active"),
    ("COC(=O)c1sc(N2CCN(Cc3ccccc3)CC2)nc1N", "active"),
    ("Cc1c(C(=O)NCC2CCCO2)sc2nc(-c3ccccc3)cn12 (stereo not given)", "active"),
    ("Oc1c(CN2CCN(c3ccc(F)cc3)CC2)cc(Cl)c2cccnc12", "inactive"),
    ("Cc1ccccc1NC(=O)CCOc1ccccc1", "active"),
    ("Nn1c(SCc2ccccc2)nnc1C1CCCCC1", "active"),
    ("O=c1c2c(-c3ccccc3)ccnc2[nH]n1-c1ccccc1", "active"),
    ("O=C(Cc1ccc(F)cc1)N/N=C/c1ccc2c(c1)OCO2", "active"),
    ("CSC(=S)N/N=C/c1c[nH]c2ccccc12", "active"),
]

Sourced from PubChem BioAssay AID1814
